test.system: BRM (Homo sapiens)
Construct: made in house; host or cells: High Five insect cells
experimental.protocol: ATPase catalytic activity of BRM, ADP-Glo in vitro biochemical assay
condition.set: ATPase catalytic activity, ADP-Glo; 30 nM BRM, 400 μM ATP
measure.name: IC50 (nM)
Field: numeric (nM). Do not append units.

Param item: C[C@@H]1CN(c2cccc(-c3ccc4cnc(CNC(=O)c5cc(Cl)c6c(c5)S(=O)(=O)CC[C@H](C)O6)cc4n3)n2)C[C@H](C)O1 [Compound 506] ; param system: BRM (Homo sapiens); output IC50: 49.2

Param item: COC[C@H](NC(=O)c1ccc2c(c1)S(=O)(=O)CCOC2)c1cc2nc(-c3cccc(C4CC4)n3)ccc2cn1 [Compound 507] ; param system: BRM (Homo sapiens); output IC50: 387

Param item: O=C(NCc1cc2nc(N3CCCc4cc(C(F)F)cnc43)ccc2cn1)c1ccc2c(c1)S(=O)(=O)CCOC2 [Compound 473] ; param system: BRM (Homo sapiens); output IC50: 10.9

Param item: O=C(NCc1cc2nc(-c3cccc(N(CC4COC4)C4CC4)n3)ccc2cn1)c1ccc2c(c1)S(=O)(=O)CCOC2 [Compound 428] ; param system: BRM (Homo sapiens); output IC50: 50.3

Param item: COc1c(C)cnc2c1CCCN2c1ccc2cnc(CNC(=O)c3ccc4c(c3)S(=O)(=O)CCOC4)cc2n1 [Compound 629] ; param system: BRM (Homo sapiens); output IC50: 10

Param item: Cc1cnc2c(c1)CCCN2c1ccc2cnc(CNC(=O)c3ccc4c(c3)S(=O)(=O)[C@@H](C)COC4)cc2n1 [Compound 396] ; param system: BRM (Homo sapiens); output IC50: 5.9

Param item: C[C@@H]1C[C@@H](N(C)c2cccc(-c3ccc4cnc(CNC(=O)c5ccc6c(c5)S(=O)(=O)CCOC6)cc4n3)n2)C[C@H](C)O1 [Compound 334] ; param system: BRM (Homo sapiens); output IC50: 21.2

Param item: C[C@H]1COCc2ccc(C(=O)NCc3cc4nc(N5CCOc6cc(Cl)cnc65)ccc4cn3)cc2S1(=O)=O [Compound 646] ; param system: BRM (Homo sapiens); output IC50: 12.1

Param item: O=C(NCc1cc2nc(N3CCCc4ccc(OCC(F)F)nc43)ccc2cn1)c1ccc2c(c1)S(=O)(=O)CCOC2 [Compound 601] ; param system: BRM (Homo sapiens); output IC50: 215

Param item: O=C(NCc1cc2nc(-c3ccc(Cl)c(OC(F)F)n3)ccc2cn1)c1ccc2c(c1)S(=O)(=O)CCOC2 [Compound 327] ; param system: BRM (Homo sapiens); output IC50: 19.2

Param item: C[C@@H]1CN(c2cccc(-c3ccc4cnc(CNC(=O)c5cccc(S(=O)(=O)C6CC6)c5)cc4n3)n2)C[C@H](C)O1 [Compound 371] ; param system: BRM (Homo sapiens); output IC50: 196

Param item: COc1c(-c2ccc3cnc(CNC(=O)c4ccc5c(c4)S(=O)(=O)CCOC5)cc3n2)cccc1C1CC1 [Compound 430] ; param system: BRM (Homo sapiens); output IC50: 477

Param item: C/C(F)=C/c1ccc(C(=O)NCc2cc3nc(-c4cccc(N5C[C@@H](C)O[C@@H](C)C5)n4)ccc3cn2)cc1S(C)(=O)=O [Compound 475] ; param system: BRM (Homo sapiens); output IC50: 215

====

test.system: BRM (Homo sapiens)
Construct: made in house; host or cells: High Five insect cells
experimental.protocol: ATPase catalytic activity of BRM, ADP-Glo in vitro biochemical assay
condition.set: ADP-Glo ATPase assay, 30 nM BRM, 400 μM ATP
# reported IC50; entries follow
Field: numeric (nM). Do not append units.

Reported IC50 of "Cc1ncnc2c1CCCN2c1ccc2cnc(CNC(=O)c3ccc4c(c3)S(=O)(=O)CCOC4)cc2n1" : 216

Reported IC50 of "O=C(NCc1cc2nc(-c3cncc(C4CC4)n3)ccc2cn1)c1cnc2c(c1)S(=O)(=O)CCCC2" : 41.6

Reported IC50 of "Cc1cc(-c2cccc(-c3ccc4cnc(CNC(=O)c5ccc6c(c5)S(=O)(=O)CCOC6)cc4n3)n2)cc(C)n1" : 3

Reported IC50 of "CN[C@H]1CCN(c2cccc(-c3ccc4cnc(CNC(=O)c5ccc6c(c5)S(=O)(=O)CCOC6)cc4n3)n2)CC1(F)F" : 89.4

Reported IC50 of "CN(C)c1cnc2c(c1)OCCN2c1ccc2cnc(CNC(=O)c3ccc4c(c3)S(=O)(=O)CCOC4)cc2n1" : 5.3

Reported IC50 of "O=C(NCc1cc2nc(-c3cccc([C@H]4CC4(F)F)n3)ccc2cn1)c1ccc2c(c1)S(=O)(=O)CCOC2" : 35.2

Further cases:
Reported IC50 of "O=C(NCc1cc2nc(-c3cccc(Cl)c3)ccc2cn1)c1ccc2c(c1)S(=O)(=O)CCOC2" : 221

Reported IC50 of "O=C(NCc1cc2nc(-c3cccc(N4CCCC(F)(F)C4)n3)ccc2cn1)c1ccc2c(c1)S(=O)(=O)CCOC2" : 5.4

Reported IC50 of "CN1CCc2nc(-c3ccc4cnc(CNC(=O)c5ccc6c(c5)S(=O)(=O)CCOC6)cc4n3)ccc21" : 437

Reported IC50 of "CNc1cccc(-c2ccc3cnc(CNC(=O)c4ccc5c(c4)S(=O)(=O)CCOC5)cc3n2)n1" : 69.6

Reported IC50 of "O=C(NCc1cc2nc(-c3cccc([C@@H]4CC4(F)F)n3)ccc2cn1)c1ccc2c(c1)S(=O)(=O)CCOC2" : 127

Reported IC50 of "O=C(NCc1cc2nc(-c3cncc(C(F)(F)F)n3)ccc2cn1)c1ccc2c(c1)S(=O)(=O)CCOC2" : 498

Reported IC50 of "C[C@@H]1CN(c2cccc(-c3ccc4cnc(CNC(=O)c5ccc6c(c5)S(=O)(=O)[C@@H](C)COC6)cc4n3)n2)C[C@H](C)O1" : 4.5

Reported IC50 of "CN(c1cnc2c(c1)OCCN2c1ccc2cnc(CNC(=O)c3ccc4c(c3)S(=O)(=O)CCOC4)cc2n1)C1CC(F)(F)C1" : 12.4

Reported IC50 of "CN(c1cnc2c(c1)OCCN2c1ccc2cnc(CNC(=O)c3ccc4c(c3)S(=O)(=O)CCOC4)cc2n1)C1CC1" : 8.7

====

test.system: BRM (Homo sapiens)
Construct: made in house; host or cells: High Five insect cells
experimental.protocol: ATPase catalytic activity of BRM, ADP-Glo in vitro biochemical assay
condition.set: ratio of BRG1 IC50 to BRM IC50
Method: The ATPase catalytic activity of BRM or BRG-1 was measured by an in vitro biochemical assay using ADP-Glo™ (Promega, V9102). The ADP-Glo™ kinase assay is performed in two steps once the reaction is complete. The first step is to deplete any unconsumed ATP in the reaction. The second step is to convert the reaction product ADP to ATP, which will be utilized by the luciferase to generate luminesce and be detected by a luminescence reader, such as Envision. […]
Please assign no (0) whenever Ratio* is at or above 6, and yes (1) whenever it is below.

Please review the entries below; each comes with its answer.
Quick check: Ratio* of "Cc1cnc2c(c1)CCCN2c1ccc2cnc(CNC(=O)c3ccc4c(c3)S(=O)(=O)[C@@H](C)COC4)cc2n1" under 6?
no (0)

Quick check: Ratio* of "O=C(NCc1cc2nc(N3CCCc4c(OC5COC5)cccc43)ccc2cn1)c1ccc2c(c1)S(=O)(=O)CCOC2" under 6?
yes (1)

Quick check: Ratio* of "COC[C@H]1COc2c(-c3ccc4cnc(CNC(=O)c5ccc6c(c5)S(=O)(=O)CCOC6)cc4n3)cccc2N1C" under 6?
yes (1)

Quick check: Ratio* of "Cc1cnc2c(c1)OCCN2c1ccc2cnc(CNC(=O)c3cc(C)c4c(c3)S(=O)(=O)CCOC4)cc2n1" under 6?
no (0)

Further cases:
Quick check: Ratio* of "C[C@@H]1CN(c2cccc(-c3ccc4cnc(CNC(=O)c5ccc6c(c5)S(=O)(=O)CCC(F)(F)C6)cc4n3)n2)C[C@H](C)O1" under 6?
yes (1)

====

# reported Ratio*; entries follow
test.system: BRM (Homo sapiens, UniProt P51531)
Construct: made in house; host or cells: High Five insect cells
Sequence (P51531 whole entry): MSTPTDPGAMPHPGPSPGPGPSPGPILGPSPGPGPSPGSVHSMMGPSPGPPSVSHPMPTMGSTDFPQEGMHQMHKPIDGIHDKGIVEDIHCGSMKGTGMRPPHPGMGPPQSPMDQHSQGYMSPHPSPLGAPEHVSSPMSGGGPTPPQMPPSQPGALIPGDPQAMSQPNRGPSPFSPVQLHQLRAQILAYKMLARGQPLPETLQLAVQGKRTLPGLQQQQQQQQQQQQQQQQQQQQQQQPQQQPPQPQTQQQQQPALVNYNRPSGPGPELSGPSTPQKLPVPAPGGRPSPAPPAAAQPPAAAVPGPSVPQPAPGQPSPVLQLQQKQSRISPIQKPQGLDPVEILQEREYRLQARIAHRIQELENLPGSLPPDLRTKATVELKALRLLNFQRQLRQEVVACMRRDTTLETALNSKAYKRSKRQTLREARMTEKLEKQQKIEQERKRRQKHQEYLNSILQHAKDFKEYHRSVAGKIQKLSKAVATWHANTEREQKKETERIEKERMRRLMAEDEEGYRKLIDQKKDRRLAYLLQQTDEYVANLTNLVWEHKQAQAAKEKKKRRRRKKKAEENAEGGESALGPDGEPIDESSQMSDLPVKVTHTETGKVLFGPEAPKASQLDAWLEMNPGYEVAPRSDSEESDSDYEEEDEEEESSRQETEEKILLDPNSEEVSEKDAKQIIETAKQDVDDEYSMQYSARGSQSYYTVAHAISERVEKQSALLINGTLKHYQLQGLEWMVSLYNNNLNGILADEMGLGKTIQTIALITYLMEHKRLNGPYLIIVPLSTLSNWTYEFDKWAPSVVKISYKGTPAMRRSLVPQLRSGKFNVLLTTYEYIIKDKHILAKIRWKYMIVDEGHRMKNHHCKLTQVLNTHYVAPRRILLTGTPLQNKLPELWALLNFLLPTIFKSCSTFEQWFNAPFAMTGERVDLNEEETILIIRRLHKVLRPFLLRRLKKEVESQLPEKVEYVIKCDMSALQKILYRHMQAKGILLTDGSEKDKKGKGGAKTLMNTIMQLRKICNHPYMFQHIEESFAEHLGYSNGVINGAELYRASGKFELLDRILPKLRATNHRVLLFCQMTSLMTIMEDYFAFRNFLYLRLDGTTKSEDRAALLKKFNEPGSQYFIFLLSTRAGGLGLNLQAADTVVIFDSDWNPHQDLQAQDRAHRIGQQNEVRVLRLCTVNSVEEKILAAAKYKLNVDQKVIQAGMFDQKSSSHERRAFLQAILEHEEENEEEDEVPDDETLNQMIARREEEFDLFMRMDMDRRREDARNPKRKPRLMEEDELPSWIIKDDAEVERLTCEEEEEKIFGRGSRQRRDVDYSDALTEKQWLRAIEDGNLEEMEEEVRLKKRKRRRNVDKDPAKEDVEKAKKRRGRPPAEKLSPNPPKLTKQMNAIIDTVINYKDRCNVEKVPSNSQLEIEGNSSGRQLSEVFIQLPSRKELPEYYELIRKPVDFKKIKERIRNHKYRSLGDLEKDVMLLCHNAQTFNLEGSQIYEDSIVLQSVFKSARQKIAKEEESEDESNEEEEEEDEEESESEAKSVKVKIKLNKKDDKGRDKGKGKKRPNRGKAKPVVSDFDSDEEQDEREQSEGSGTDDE
experimental.protocol: ATPase catalytic activity of BRM, ADP-Glo in vitro biochemical assay
condition.set: ratio BRG1 IC50 / BRM IC50
Method: The ATPase catalytic activity of BRM or BRG-1 was measured by an in vitro biochemical assay using ADP-Glo™ (Promega, V9102). The ADP-Glo™ kinase assay is performed in two steps once the reaction is complete. The first step is to deplete any unconsumed ATP in the reaction. The second step is to convert the reaction product ADP to ATP, which will be utilized by the luciferase to generate luminesce and be detected by a luminescence reader, such as Envision. […]
Write no unit; give the number alone.

The cases that follow already have their Ratio* on record.
Param item: "C[C@H]1COCc2ccc(C(=O)NCc3cc4nc(-c5cccc(N6C[C@H]7COC[C@H]7C6)n5)ccc4cn3)cc2S1(=O)=O" ; param system: BRM (Homo sapiens, UniProt P51531); output Ratio*: 11.57

Param item: "C[C@@H]1C[C@H]1c1ccc2c(n1)N(c1ccc3cnc(CNC(=O)c4ccc5c(c4)S(=O)(=O)CCOC5)cc3n1)CCO2" ; param system: BRM (Homo sapiens, UniProt P51531); output Ratio*: 39.28

Param item: "O=C(NCc1cc2nc(N3CCOc4cnc(C5CC5)c(F)c43)ccc2cn1)c1ccc2c(c1)S(=O)(=O)CCOC2" ; param system: BRM (Homo sapiens, UniProt P51531); output Ratio*: 16.24

Param item: "C[C@H]1COCc2ccc(C(=O)NCc3cc4nc(N5CCOc6cc(F)cnc65)ccc4cn3)cc2S1(=O)=O" ; param system: BRM (Homo sapiens, UniProt P51531); output Ratio*: 32.33

Param item: "O=C(NCc1cc2nc(N3CCOc4ccc(C56CC(C5)C6)nc43)ccc2cn1)c1ccc2c(c1)S(=O)(=O)CCOC2" ; param system: BRM (Homo sapiens, UniProt P51531); output Ratio*: 10.47

Param item: "COc1cc2c(cn1)N(c1ccc3cnc(CNC(=O)c4ccc5c(c4)S(=O)(=O)CCOC5)cc3n1)CCC2" ; param system: BRM (Homo sapiens, UniProt P51531); output Ratio*: 13.62

Further cases:
Param item: "CO[C@H](C)COc1ccc2c(c1)N(c1ccc3cnc(CNC(=O)c4ccc5c(c4)S(=O)(=O)CCOC5)cc3n1)CCC2" ; param system: BRM (Homo sapiens, UniProt P51531); output Ratio*: 13.63

Param item: "O=C(NCc1cc2nc(N3CCOc4ccc([C@H](F)CF)nc43)ccc2cn1)c1ccc2c(c1)S(=O)(=O)CCOC2" ; param system: BRM (Homo sapiens, UniProt P51531); output Ratio*: 55.91

Param item: "Cc1cc(C(=O)NCc2cc3cc(-c4cccc(N5C[C@@H](C)O[C@@H](C)C5)n4)ccc3cn2)cc2c1COCCS2(=O)=O" ; param system: BRM (Homo sapiens, UniProt P51531); output Ratio*: 2.42

Param item: O=C(NCc1cc2nc(N3CCOc4ccc(C5(F)CC5(F)F)nc43)ccc2cn1)c1ccc2c(c1)S(=O)(=O)CCOC2 (centres unmarked) ; param system: BRM (Homo sapiens, UniProt P51531); output Ratio*: 33.67

Param item: "Cc1nc2c(cc1F)OCCN2c1ccc2cnc(CNC(=O)c3ccc4c(c3)S(=O)(=O)CCOC4)cc2n1" ; param system: BRM (Homo sapiens, UniProt P51531); output Ratio*: 20.67

Param item: "O=C(NCc1cc2nc(N3CCOc4cc(C5CC5)ccc43)cnc2cn1)c1ccc2c(c1)S(=O)(=O)CCOC2" ; param system: BRM (Homo sapiens, UniProt P51531); output Ratio*: 19.99

Param item: O=C(NCc1cc2nc(N3CC(F)Cc4cccnc43)ccc2cn1)c1ccc2c(c1)S(=O)(=O)CCOC2 (centres unmarked) ; param system: BRM (Homo sapiens, UniProt P51531); output Ratio*: 10.98

Param item: "COCCN(c1ccnc(C2CC2)n1)c1ccc2cnc(CNC(=O)c3ccc4c(c3)S(=O)(=O)CCOC4)cc2n1" ; param system: BRM (Homo sapiens, UniProt P51531); output Ratio*: 1.00
